The entries below come with measured IC50 values attached.
biological target: Proteasome subunit beta type-10 (Homo sapiens, UniProt P40306); test: Inhibition of 20S immunoproteasome beta 2 in human RPMI8226 cell lysates after 1 hr by coomassie brilliant blue staining-based fluorescence assay; format: subcellular, Lysate
Sequence (P40306 whole entry): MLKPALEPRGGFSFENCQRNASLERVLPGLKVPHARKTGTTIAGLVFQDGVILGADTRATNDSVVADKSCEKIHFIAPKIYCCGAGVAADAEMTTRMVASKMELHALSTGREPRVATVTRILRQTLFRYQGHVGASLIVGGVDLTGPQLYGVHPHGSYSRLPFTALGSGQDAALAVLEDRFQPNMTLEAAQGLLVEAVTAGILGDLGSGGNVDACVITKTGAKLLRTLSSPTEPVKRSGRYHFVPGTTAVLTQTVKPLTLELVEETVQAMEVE

COMPOUND: CC(C)C[C@H](NC(=O)c1cnccn1)C(=O)N[C@@H](CC(C)C)C(=O)N[C@H](/C=C/S(C)(=O)=O)Cc1ccc(CN)cc1
IC50: > 10 µM

Entry CC(C)C[C@H](NC(=O)[C@H](Cc1ccccc1)N=[N+]=[N-])C(=O)N[C@@H](CC(C)C)C(=O)N[C@H](/C=C/S(C)(=O)=O)Cc1ccc(CN)cc1 : IC50 on Proteasome subunit beta type-10 (Homo sapiens, UniProt P40306) = 0.41 µM

Tested system Proteasome subunit beta type-10 (Homo sapiens, UniProt P40306); IC50 recorded for COC[C@H](NC(=O)[C@H](CC(C)C)NC(=O)c1cnc(C)s1)C(=O)N[C@H](/C=C/S(C)(=O)=O)Cc1ccc(CN)cc1 was > 10 µM

Recorded IC50 for CC(C)C[C@H](NC(=O)[C@H](Cc1ccccc1)N=[N+]=[N-])C(=O)N[C@H](C(=O)N[C@H](/C=C/S(C)(=O)=O)Cc1ccc(CN)cc1)[C@@H](C)O on Proteasome subunit beta type-10 (Homo sapiens, UniProt P40306) was > 10 µM

Note to self: IC50 of COC1CCC(C[C@H](NC(=O)c2cnc(C)s2)C(=O)N[C@@H](CC(C)C)C(=O)N[C@H](/C=C/S(C)(=O)=O)Cc2ccc(CN)cc2)CC1 (stereo partly specified) with Proteasome subunit beta type-10 (Homo sapiens, UniProt P40306) was > 10 µM

The observed IC50 for CC(C)C[C@H](NC(=O)[C@H](Cc1ccccc1)N=[N+]=[N-])C(=O)N[C@@H](C)C(=O)N[C@H](/C=C/S(C)(=O)=O)Cc1ccc(CN)cc1 when tested with Proteasome subunit beta type-10 (Homo sapiens, UniProt P40306) stands at > 10 µM

Sourced from ChEMBL document CHEMBL4368918
